Biological target: Protein Mdm4 (Homo sapiens, UniProt O15151)
Sequence (O15151 whole entry): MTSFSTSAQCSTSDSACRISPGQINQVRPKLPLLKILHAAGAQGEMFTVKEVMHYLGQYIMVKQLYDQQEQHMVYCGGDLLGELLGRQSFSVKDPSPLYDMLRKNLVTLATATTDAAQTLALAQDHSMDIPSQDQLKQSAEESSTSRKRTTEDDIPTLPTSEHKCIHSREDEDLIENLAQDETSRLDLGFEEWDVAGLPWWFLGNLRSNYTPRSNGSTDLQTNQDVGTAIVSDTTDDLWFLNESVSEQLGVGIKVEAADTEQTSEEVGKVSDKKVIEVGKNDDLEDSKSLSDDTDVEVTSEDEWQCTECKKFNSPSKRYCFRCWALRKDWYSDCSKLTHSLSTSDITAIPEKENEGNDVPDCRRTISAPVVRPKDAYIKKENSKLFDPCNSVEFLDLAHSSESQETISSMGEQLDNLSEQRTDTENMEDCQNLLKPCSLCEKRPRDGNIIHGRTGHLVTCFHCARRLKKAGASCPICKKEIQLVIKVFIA
pIC50: −log10 of the molar value.
measuredProperty: pIC50

smilesString: CC(C)C(=O)Nc1ccccc1SC(=O)C(C)C
value: 5.82
